MEASUREMENT TARGET: Cytochrome P450 1A2 (Homo sapiens) (UniProt P05177)
Sequence (P05177 whole entry, looked up): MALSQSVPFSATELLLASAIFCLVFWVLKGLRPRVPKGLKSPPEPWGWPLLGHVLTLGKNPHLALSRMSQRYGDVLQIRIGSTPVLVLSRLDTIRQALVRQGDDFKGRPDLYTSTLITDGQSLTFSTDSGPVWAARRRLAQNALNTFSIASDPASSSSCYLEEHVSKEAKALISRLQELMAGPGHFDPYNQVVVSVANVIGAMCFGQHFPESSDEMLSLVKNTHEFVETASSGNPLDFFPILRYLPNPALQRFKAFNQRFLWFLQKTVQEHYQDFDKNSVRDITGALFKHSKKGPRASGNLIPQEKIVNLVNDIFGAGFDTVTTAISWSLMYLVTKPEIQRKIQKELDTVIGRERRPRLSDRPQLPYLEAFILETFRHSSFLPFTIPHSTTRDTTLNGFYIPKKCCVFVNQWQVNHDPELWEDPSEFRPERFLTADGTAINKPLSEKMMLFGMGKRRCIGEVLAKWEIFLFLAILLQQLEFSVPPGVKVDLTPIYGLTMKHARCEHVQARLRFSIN
PROTOCOL: p450-cyp1a2 (AID 410)
CONDITION SUMMARY: recombinant CYP1A2, luciferin-ME demethylation, luminescence; series mostly up to 57 µM
Inconclusive results are not listed. Active and inactive are the calls of the source. The call rests on the fitted dose curve.
Entry note: the call must match one of 1.0 = active, 0.0 = inactive

I'd appreciate the recorded outcome for COCCn1c(=O)c(-c2ccccc2)nc2cnc(OC)nc21 from this test. 1.0

Others:
Please state the recorded outcome for this molecule: COc1ccc(-n2c(=O)c(-c3cccs3)nc3cnc(N(C)C)nc32)cc1 0.0

Field: outcome | Entry: COc1cccc(Cn2c(=O)c(-c3cccc(C#N)c3)nc3cnc(N4CCN(C)CC4)nc32)c1 0.0

Write down the call the test reported for this molecule. Item: COCC(=O)N1CCC2(CC1)CCN(C(=O)Nc1cccc(C#N)c1)CC2 0.0

Fill in: this test's call for CN(C)Cc1ccccc1-c1nc(N2CCOCC2)c2ccccc2n1 is ___ 1.0

###

MEASUREMENT TARGET: Dual specificity protein kinase CLK4 (Homo sapiens) (UniProt Q9HAZ1)
Sequence (Q9HAZ1 whole entry, looked up): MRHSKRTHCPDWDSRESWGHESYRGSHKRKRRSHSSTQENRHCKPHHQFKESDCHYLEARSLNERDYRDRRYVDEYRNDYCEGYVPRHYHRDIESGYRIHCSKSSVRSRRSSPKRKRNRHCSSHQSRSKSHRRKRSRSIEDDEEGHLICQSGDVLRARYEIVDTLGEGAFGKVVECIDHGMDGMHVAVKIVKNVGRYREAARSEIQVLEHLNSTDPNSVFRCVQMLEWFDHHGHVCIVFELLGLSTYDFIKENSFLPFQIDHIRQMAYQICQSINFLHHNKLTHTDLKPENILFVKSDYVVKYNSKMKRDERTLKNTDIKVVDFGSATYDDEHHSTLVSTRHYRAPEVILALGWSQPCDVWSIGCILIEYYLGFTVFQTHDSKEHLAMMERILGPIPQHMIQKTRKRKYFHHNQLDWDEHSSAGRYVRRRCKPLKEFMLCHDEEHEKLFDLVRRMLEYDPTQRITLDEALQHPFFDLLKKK
PROTOCOL: qHTS Assay for Inhibitors of CDC-like Kinase 4 (ADP-Glo Assay) (AID 1771); further: nearly all actives have a fitted effect of over 70% in size; further: potency means the concentration at half of the fitted maximal effect
CONDITION SUMMARY: recombinant CLK4, ADP-Glo luminescence; series mostly up to 80 µM
Inconclusive results are not listed. Calls of active or inactive are those of the source. Calls come from the whole dose curve; as a rule, active = well fitted inhibition curve with a large enough effect; inconclusive = small, poorly fitted or top-dose-only effect; inactive = flat fitted curve, though single readings scatter.
READOUT TYPE: Potency

These recorded examples may help you get a feel for the data.
# query: Potency of entry O=c1c(-c2ccc(F)cc2)nc2cnc(N3CCNCC3)nc2n1Cc1ccc(F)cc1 inactive

Consider the compound CN1CCN(c2ncncc2-c2ccc(C(=O)N(C)C)cc2)CC1 and give its measured Potency. inactive

Look up Potency: FC(F)(F)c1ccccc1-c1nccc(N2CCNCC2)n1 inactive

So what's the measured Potency for this one? COc1cccc(Cn2c(=O)c(-c3cn(C)c4ccccc34)nc3cnc(N4CCNCC4)nc32)c1 inactive

So what's the measured Potency for this one? COc1cccc(Nc2ncc3nc(C)c(=O)n(CCc4ccccc4)c3n2)c1 7.08 µM (active)

Please report Potency for every entry that follows.
1. CCNc1ncc2nc(C)c(=O)n(Cc3ccc(F)cc3)c2n1
2. CN(C)c1ccc(-c2ccc3ncnc(N(C)C)c3c2)cc1
3. CN(C)c1ncc2nc(-c3cc(F)cc(F)c3)c(=O)n(CCC#N)c2n1
4. Cc1noc(C)c1-c1cc(NC2CCNCC2)ncn1
5. CN1CCN(c2ncnc3ccc(-c4ccccc4Cl)cc23)CC1
6. COc1ccc(Oc2ncc3nc(-c4ccc(OC)cc4)c(=O)n(C4CC4)c3n2)cc1
7. CN(C)c1ncc2nc(-c3ccc(F)cc3)c(=O)n(Cc3cccs3)c2n1

15.8 µM (active)
8.91 µM (active)
inactive
inactive
28.2 µM (active)
inactive
inactive

###

PROTOCOL: SW1088 Cancer Cell Toxicity qHTS against the NCATS CANVASS Library (AID 1347350); further: nearly all actives have a fitted effect of over 75% in size
CONDITION SUMMARY: SW1088 viability, CellTiter-Glo luminescence, 72 h; series mostly up to 38.3 µM
Inconclusive results are not listed. Calls of active or inactive are those of the source. Calls come from the whole dose curve; as a rule, active = well fitted cell-killing curve with a large enough effect; inconclusive = small, poorly fitted or top-dose-only effect; inactive = flat fitted curve, though single readings scatter.
One label from this list, please: yes = active, no = inactive

See these solved cases before continuing.
Test call for this compound, please: COC(=O)[C@]1([C@H]2CCC(=O)O2)CC(=O)c2c(O)cc(C)cc2O1 no

// param item: O=C1OC(CCO)c2cccc(O)c21 (stereo unspecified) ; yields the recorded call no

New cases:
Tell me the assay call for CC[C@H]1[C@@H](C)[C@@H](c2cc(OC)c(OC)cc2OC)[C@H](C)[C@@H](c2cc(OC)c(OC)cc2OC)[C@@]12C=C(OC)C(=O)C=C2OC please. yes

Could you kindly confirm the outcome this assay logged for C/C(=C\[C@@H](C)CC/C=C/CC/C=C/C(=O)O)[C@@H](O)[C@H](C)C(=O)CCCC1CC(=O)NC(=O)C1 ? no

# outcome recorded in this test, key = C=C1C[C@H]2O[C@@H]3[C@@H]4[C@H](CC[C@@](C)(O)[C@@H]42)[C@H](C)COC3(C)[C@@H](OC(=O)CCCCCCC)CC1=O (stereo partly specified) yes

Please let me know the test result on file for C/C=C1/CN2C3CC1C1C=CC(=O)N4c5ccccc5[C@@]3(C[C@@H]2C2=C[C@H]3C5CC6N(CC[C@@]67c6ccccc6N(C2=O)[C@@H]37)C/C5=C/C)[C@H]14 (stereo partly specified) . yes
